These entries and their values trace back to paper PMC9482650.

# measuredOn: DLG2_3, Q15700
# testMethodNotes: holdup assay
# Set-up: key: below the threshold = too weak to quantify, mostly under pKd 3.1 to 4
# conditions: plain residues with an end cap or a label only (N-terminal biotin on a linker: ado-ado)
readoutType: pKd

| binder | observed |
| --- | --- |
| KLQNPNQSVV [TYRP1, P17643] | below the threshold |
| STYCDYTIEI [FAM71C, Q8NEG0] | below the threshold |
| QRYPGNQTTC [CCL24, O00175] | 3.87 |
